# reported pIC50; entries follow
target: HMG-CoA reductase (Rattus norvegicus, UniProt P51639); test: HMG-CoA reductase inhibitory activity (rat liver microsome); assay type: biochemical, rat (Sprague-Dawley); details: [3-14C]HMG-CoA, 37° C., 30 minutes
Sequence (P51639 whole entry): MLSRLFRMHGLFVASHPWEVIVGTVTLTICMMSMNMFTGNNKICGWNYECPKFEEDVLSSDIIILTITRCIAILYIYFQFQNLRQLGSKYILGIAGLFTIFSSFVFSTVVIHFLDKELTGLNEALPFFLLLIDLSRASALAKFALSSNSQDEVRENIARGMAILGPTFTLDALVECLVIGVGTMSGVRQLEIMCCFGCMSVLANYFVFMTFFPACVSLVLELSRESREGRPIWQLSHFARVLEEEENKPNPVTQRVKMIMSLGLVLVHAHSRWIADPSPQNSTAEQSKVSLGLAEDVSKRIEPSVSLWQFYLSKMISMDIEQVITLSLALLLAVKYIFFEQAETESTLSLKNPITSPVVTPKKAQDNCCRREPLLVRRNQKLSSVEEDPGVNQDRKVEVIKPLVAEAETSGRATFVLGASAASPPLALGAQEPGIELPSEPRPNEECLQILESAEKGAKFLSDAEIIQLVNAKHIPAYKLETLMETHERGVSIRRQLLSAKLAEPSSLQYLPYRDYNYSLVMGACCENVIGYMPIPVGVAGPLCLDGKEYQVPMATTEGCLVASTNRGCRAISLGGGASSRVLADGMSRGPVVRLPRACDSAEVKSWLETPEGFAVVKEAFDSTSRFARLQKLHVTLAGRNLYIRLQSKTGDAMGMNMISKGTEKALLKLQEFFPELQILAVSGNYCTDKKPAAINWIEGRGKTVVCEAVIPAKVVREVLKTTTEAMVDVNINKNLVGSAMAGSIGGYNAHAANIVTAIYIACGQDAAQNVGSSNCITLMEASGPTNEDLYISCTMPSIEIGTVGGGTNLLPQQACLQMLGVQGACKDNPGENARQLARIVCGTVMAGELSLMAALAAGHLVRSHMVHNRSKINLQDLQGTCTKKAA
pIC50 here: minus log base 10 of the concentration, concentration in moles per litre.

Cn1nnnc1C(/C=C/[C@@H](O)C[C@@H](O)CC(=O)O)=C(\c1ccc(F)cc1)c1cc2ccccc2o1 (relative stereo) = 7.05

Q: // lookup pIC50 for Cc1ccc(C(C)C)c2c(/C=C/[C@@H](O)C[C@@H](O)CC(=O)O)c(-c3ccc(F)cc3)oc12 (relative stereo)
Ans: 6.57

Q: What does the record list as pIC50 for CC(=O)N(C)c1ccc(-c2ccc(F)cc2)c2c(/C=C/[C@@H](O)C[C@@H](O)CC(=O)O)c(C(C)C)oc12 (relative stereo) ?
Ans: 7.70

Q: Which pIC50 is reported for this molecule? CNc1ccc(-c2ccc(F)cc2)c2c(/C=C/[C@@H](O)C[C@@H](O)CC(=O)O)c(C(C)C)oc12 (relative stereo)
Ans: 7.20
